Each item that follows carries a reported Kinase inhibition profile of HGSOC cells (growth inhibition, Cell Titer Glo).
System: OVSAHO
PROCEDURE TEXT: Short-term growth assay (CellTiter-Glo cell viability), kinase inhibitors
Format: cell-based, human
EXPERIMENTAL PARAMETERS: drug 1.2 uM
READOUT: Kinase inhibition profile of HGSOC cells (growth inhibition, Cell Titer Glo)

[
  {
    "MOLECULE": "CNc1ncc2cc(-c3cc(NC(=O)NCCC(C)(C)C)c(F)cc3C)c(C)nc2n1 [LY300]",
    "TARGET DESC": "OVSAHO",
    "RECORDED VALUE": 0.166
  },
  {
    "MOLECULE": "CCOc1ccn(-c2ccc(F)cc2)c(=O)c1C(=O)Nc1ccc(Oc2ccnc(N)c2Cl)c(F)c1 [BMS777607]",
    "TARGET DESC": "OVSAHO",
    "RECORDED VALUE": 1.102
  },
  {
    "MOLECULE": "COc1cc2c(Oc3ccc4[nH]c(C)cc4c3F)ncnc2cc1OCCCN1CCCC1 [Cederinib]",
    "TARGET DESC": "OVSAHO",
    "RECORDED VALUE": 1.089
  },
  {
    "MOLECULE": "NC(=O)Nc1sc(-c2ccc(F)cc2)cc1C(N)=O [TPCA-1]",
    "TARGET DESC": "OVSAHO",
    "RECORDED VALUE": 0.9827
  },
  {
    "MOLECULE": "CS(=O)(=O)CCNCc1ccc(-c2ccc3ncnc(Nc4ccc(OCc5cccc(F)c5)c(Cl)c4)c3c2)o1 [Lapatinib]",
    "TARGET DESC": "OVSAHO",
    "RECORDED VALUE": 1.053
  },
  {
    "MOLECULE": "Cc1nc(Nc2[nH]nc3c2CN(C(=O)N[C@H](CN(C)C)c2ccccc2)C3(C)C)c2sccc2n1 [PF03758039]",
    "TARGET DESC": "OVSAHO",
    "RECORDED VALUE": 0.659
  },
  {
    "MOLECULE": "CNC(=O)c1ccccc1Nc1cc(Nc2ccc(N3CCOCC3)cc2OC)ncc1C(F)(F)F [PND1186]",
    "TARGET DESC": "OVSAHO",
    "RECORDED VALUE": 0.69
  }
]

* * *

Tested on: FAK1, MLC and Paxillin phosphorylation; FAK1 and CHEK1 protein levels
PROCEDURE TEXT: Western blot of signaling in inhibitor-treated HGSOC cells
Assay type: cell-based, human
EXPERIMENTAL PARAMETERS: HGSOC (COV362) cells, increasing doses 0.5, 1 or 3 μM, 48 hours

[
  {
    "MOLECULE": "CCn1c(-c2nonc2N)nc2cncc(C(=O)N3CC[C@H](N)C3)c21",
    "FAK1, MLC and Paxillin phosphorylation": "reduced"
  },
  {
    "MOLECULE": "CC1=C(C(=O)Nc2cc(Cl)c3[nH]ncc3c2)C(c2ccc(C(F)(F)F)cc2)CC(=O)N1 (stereo not shown) [GSK466317A]",
    "FAK1, MLC and Paxillin phosphorylation": "reduced"
  },
  {
    "MOLECULE": "O=C(NCc1cccc(O)c1)Nc1nc(-c2ccncc2)cs1",
    "FAK1, MLC and Paxillin phosphorylation": "reduced"
  }
]

* * *

TARGET DESC: MRCKB (Homo sapiens, UniProt Q9Y5S2)
Construct: endogenous in cells; host or cells: OVSAHO
Sequence (Q9Y5S2 whole entry): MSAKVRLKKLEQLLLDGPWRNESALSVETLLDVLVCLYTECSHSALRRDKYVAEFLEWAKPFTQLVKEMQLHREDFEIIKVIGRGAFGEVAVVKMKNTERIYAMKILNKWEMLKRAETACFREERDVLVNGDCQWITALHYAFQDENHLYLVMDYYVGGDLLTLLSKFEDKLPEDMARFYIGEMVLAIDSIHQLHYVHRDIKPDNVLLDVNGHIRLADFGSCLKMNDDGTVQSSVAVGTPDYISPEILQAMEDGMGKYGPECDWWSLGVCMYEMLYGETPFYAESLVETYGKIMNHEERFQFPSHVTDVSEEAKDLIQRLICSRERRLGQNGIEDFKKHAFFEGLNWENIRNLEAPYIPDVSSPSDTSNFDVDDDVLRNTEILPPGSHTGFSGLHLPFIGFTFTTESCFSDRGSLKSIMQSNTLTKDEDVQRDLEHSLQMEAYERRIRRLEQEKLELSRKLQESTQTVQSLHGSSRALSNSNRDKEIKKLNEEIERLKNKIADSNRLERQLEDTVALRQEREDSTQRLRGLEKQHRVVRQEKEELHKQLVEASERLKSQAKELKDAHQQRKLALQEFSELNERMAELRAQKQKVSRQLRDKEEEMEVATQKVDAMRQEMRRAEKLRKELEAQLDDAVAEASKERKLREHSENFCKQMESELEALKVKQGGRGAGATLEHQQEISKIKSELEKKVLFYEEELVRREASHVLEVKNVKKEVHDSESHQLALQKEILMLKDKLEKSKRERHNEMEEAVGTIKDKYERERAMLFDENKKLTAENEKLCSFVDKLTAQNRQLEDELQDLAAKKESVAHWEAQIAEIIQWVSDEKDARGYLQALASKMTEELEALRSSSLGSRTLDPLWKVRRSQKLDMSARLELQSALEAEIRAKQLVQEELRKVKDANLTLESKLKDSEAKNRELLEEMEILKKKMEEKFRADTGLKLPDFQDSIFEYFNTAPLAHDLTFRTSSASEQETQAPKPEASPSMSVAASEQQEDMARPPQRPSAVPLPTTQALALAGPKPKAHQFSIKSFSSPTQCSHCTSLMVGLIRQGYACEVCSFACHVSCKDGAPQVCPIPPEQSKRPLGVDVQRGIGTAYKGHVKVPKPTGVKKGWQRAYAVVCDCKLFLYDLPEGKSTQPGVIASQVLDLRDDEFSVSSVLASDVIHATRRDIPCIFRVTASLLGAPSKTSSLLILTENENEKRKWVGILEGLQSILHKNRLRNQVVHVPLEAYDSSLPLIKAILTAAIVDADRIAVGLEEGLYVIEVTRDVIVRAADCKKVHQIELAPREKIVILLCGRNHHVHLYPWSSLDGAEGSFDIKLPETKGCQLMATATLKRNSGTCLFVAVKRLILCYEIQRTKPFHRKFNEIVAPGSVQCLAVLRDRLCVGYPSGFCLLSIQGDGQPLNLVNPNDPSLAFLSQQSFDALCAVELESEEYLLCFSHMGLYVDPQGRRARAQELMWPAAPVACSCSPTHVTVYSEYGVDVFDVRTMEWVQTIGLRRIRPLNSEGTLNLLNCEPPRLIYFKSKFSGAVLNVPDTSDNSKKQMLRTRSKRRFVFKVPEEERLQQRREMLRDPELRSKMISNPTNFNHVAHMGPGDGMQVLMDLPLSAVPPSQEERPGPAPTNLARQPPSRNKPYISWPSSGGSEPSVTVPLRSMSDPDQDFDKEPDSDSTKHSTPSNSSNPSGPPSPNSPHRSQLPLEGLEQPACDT
PROCEDURE TEXT: MIB/MS kinome profiling of inhibitor-treated OVSAHO cells
Format: cell-based
EXPERIMENTAL PARAMETERS: 2 μM, 4 hour treatment
READOUT: MIB-binding of MRCKB relative to DMSO

[
  {
    "COMPOUND": "CC1=C(C(=O)Nc2cc(Cl)c3[nH]ncc3c2)C(c2ccc(C(F)(F)F)cc2)CC(=O)N1 (stereo not shown) [GSK466317A]",
    "RECORDED VALUE": "Reduced MIB-binding"
  },
  {
    "COMPOUND": "Fc1ccc(Cl)cc1-c1nc(Nc2ccncc2)c2nccnc2n1",
    "RECORDED VALUE": "no effect"
  },
  {
    "COMPOUND": "CS(=O)(=O)CCNCc1ccc(-c2ccc3ncnc(Nc4ccc(OCc5cccc(F)c5)c(Cl)c4)c3c2)o1",
    "RECORDED VALUE": "no effect"
  },
  {
    "COMPOUND": "Cc1[nH]nc2ccc(-c3cncc(OC[C@@H](N)Cc4ccccc4)c3)cc12",
    "RECORDED VALUE": "Reduced MIB-binding"
  }
]

* * *

Tested on: OVCAR4
PROCEDURE TEXT: Short-term growth assay (CellTiter-Glo cell viability), kinase inhibitors
Assay type: cell-based, human
EXPERIMENTAL PARAMETERS: drug 1.2 uM
READOUT: Kinase inhibition profile of HGSOC cells (growth inhibition, Cell Titer Glo)

[
  {
    "COMPOUND STRING": "Cc1nc(Nc2[nH]nc3c2CN(C(=O)N[C@H](CN(C)C)c2ccccc2)C3(C)C)c2sccc2n1",
    "TARGET DESC": "OVCAR4",
    "RECORDED VALUE": 0.2063
  },
  {
    "COMPOUND STRING": "COc1cc2c(Oc3ccc4[nH]c(C)cc4c3F)ncnc2cc1OCCCN1CCCC1",
    "TARGET DESC": "OVCAR4",
    "RECORDED VALUE": 1.089
  },
  {
    "COMPOUND STRING": "NC(=O)Nc1sc(-c2ccc(F)cc2)cc1C(N)=O",
    "TARGET DESC": "OVCAR4",
    "RECORDED VALUE": 0.8768
  },
  {
    "COMPOUND STRING": "CNc1ncc2cc(-c3cc(NC(=O)NCCC(C)(C)C)c(F)cc3C)c(C)nc2n1",
    "TARGET DESC": "OVCAR4",
    "RECORDED VALUE": 0.6062
  },
  {
    "COMPOUND STRING": "CNC(=O)c1ccccc1Nc1cc(Nc2ccc(N3CCOCC3)cc2OC)ncc1C(F)(F)F",
    "TARGET DESC": "OVCAR4",
    "RECORDED VALUE": 0.51
  },
  {
    "COMPOUND STRING": "CS(=O)(=O)CCNCc1ccc(-c2ccc3ncnc(Nc4ccc(OCc5cccc(F)c5)c(Cl)c4)c3c2)o1",
    "TARGET DESC": "OVCAR4",
    "RECORDED VALUE": 0.974
  },
  {
    "COMPOUND STRING": "CCOc1ccn(-c2ccc(F)cc2)c(=O)c1C(=O)Nc1ccc(Oc2ccnc(N)c2Cl)c(F)c1",
    "TARGET DESC": "OVCAR4",
    "RECORDED VALUE": 1.062
  }
]

* * *

TARGET DESC: MRCKA (Homo sapiens, UniProt Q5VT25)
Sequence (Q5VT25 whole entry): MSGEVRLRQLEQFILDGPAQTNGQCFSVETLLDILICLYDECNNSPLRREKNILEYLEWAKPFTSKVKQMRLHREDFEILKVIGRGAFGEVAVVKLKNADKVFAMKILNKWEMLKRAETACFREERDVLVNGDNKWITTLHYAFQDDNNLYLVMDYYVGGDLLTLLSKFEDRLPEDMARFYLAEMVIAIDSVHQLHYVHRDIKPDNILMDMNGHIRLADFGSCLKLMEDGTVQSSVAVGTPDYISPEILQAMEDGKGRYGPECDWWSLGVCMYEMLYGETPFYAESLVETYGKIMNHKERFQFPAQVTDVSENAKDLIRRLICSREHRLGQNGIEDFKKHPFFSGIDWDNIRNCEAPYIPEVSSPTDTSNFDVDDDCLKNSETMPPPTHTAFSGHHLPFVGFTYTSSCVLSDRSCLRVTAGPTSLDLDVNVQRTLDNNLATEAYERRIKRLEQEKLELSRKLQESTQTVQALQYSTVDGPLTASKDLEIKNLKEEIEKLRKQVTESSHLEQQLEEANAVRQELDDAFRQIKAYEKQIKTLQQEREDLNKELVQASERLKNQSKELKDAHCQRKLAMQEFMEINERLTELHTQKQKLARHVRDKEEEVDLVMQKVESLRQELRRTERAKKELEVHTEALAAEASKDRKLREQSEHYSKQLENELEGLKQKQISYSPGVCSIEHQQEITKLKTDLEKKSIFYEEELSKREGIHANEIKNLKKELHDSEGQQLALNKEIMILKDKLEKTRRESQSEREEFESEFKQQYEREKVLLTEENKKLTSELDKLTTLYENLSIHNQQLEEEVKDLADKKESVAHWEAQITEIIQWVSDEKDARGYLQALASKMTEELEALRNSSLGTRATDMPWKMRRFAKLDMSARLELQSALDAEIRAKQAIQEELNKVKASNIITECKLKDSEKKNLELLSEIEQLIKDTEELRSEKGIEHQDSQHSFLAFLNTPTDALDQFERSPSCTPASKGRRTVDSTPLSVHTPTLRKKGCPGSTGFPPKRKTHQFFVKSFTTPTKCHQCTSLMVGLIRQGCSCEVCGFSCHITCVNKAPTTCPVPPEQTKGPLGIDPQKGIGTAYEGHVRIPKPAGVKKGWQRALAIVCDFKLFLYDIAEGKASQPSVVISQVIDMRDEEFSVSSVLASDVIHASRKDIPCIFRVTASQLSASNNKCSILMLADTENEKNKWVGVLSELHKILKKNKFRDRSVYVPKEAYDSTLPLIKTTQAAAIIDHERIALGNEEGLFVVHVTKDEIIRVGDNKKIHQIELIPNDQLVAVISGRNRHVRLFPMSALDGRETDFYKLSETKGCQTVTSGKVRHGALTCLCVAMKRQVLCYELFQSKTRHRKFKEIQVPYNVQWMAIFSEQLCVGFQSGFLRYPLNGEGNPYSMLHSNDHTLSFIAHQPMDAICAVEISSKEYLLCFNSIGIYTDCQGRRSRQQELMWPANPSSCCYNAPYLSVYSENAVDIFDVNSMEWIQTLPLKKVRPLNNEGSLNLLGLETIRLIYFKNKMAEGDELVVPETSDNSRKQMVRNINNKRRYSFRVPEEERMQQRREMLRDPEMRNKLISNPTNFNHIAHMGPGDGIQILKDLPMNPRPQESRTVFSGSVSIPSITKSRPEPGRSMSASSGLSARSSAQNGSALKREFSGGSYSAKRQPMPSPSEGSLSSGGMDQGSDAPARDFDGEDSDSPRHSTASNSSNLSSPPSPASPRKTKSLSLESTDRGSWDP
PROCEDURE TEXT: MIB/MS kinome profiling of inhibitor-treated OVSAHO cells
Type: cell-based
Set-up: endogenous in cells; host or cells: OVSAHO
EXPERIMENTAL PARAMETERS: 2 μM, 4 hour treatment
READOUT: MIB-binding of MRCKA relative to DMSO

[
  {
    "COMPOUND": "CS(=O)(=O)CCNCc1ccc(-c2ccc3ncnc(Nc4ccc(OCc5cccc(F)c5)c(Cl)c4)c3c2)o1 [Lapatinib]",
    "RECORDED VALUE": "no effect"
  },
  {
    "COMPOUND": "Fc1ccc(Cl)cc1-c1nc(Nc2ccncc2)c2nccnc2n1 [SD-208]",
    "RECORDED VALUE": "no effect"
  }
]

* * *

Test system: SNU-119
PROCEDURE TEXT: Short-term growth assay (CellTiter-Glo cell viability), kinase inhibitors
Type: cell-based, human
EXPERIMENTAL PARAMETERS: drug 1.2 uM
READOUT: Kinase inhibition profile of HGSOC cells (growth inhibition, Cell Titer Glo)

[
  {
    "COMPOUND": "CCOc1ccn(-c2ccc(F)cc2)c(=O)c1C(=O)Nc1ccc(Oc2ccnc(N)c2Cl)c(F)c1 [BMS777607]",
    "TARGET DESC": "SNU-119",
    "RECORDED VALUE": 1.028
  },
  {
    "COMPOUND": "CS(=O)(=O)CCNCc1ccc(-c2ccc3ncnc(Nc4ccc(OCc5cccc(F)c5)c(Cl)c4)c3c2)o1 [Lapatinib]",
    "TARGET DESC": "SNU-119",
    "RECORDED VALUE": 0.15
  },
  {
    "COMPOUND": "NC(=O)Nc1sc(-c2ccc(F)cc2)cc1C(N)=O [TPCA-1]",
    "TARGET DESC": "SNU-119",
    "RECORDED VALUE": 0.9375
  },
  {
    "COMPOUND": "CNc1ncc2cc(-c3cc(NC(=O)NCCC(C)(C)C)c(F)cc3C)c(C)nc2n1 [LY300]",
    "TARGET DESC": "SNU-119",
    "RECORDED VALUE": 0.6599
  },
  {
    "COMPOUND": "Cc1nc(Nc2[nH]nc3c2CN(C(=O)N[C@H](CN(C)C)c2ccccc2)C3(C)C)c2sccc2n1 [PF03758039]",
    "TARGET DESC": "SNU-119",
    "RECORDED VALUE": 0.3505
  },
  {
    "COMPOUND": "COc1cc2c(Oc3ccc4[nH]c(C)cc4c3F)ncnc2cc1OCCCN1CCCC1 [Cederinib]",
    "TARGET DESC": "SNU-119",
    "RECORDED VALUE": 0.6258
  },
  {
    "COMPOUND": "CNC(=O)c1ccccc1Nc1cc(Nc2ccc(N3CCOCC3)cc2OC)ncc1C(F)(F)F [PND1186]",
    "TARGET DESC": "SNU-119",
    "RECORDED VALUE": 0
  }
]
